biological target: HSA, human serum albumin (Homo sapiens, UniProt P02768); test: fluorescence polarization, off-DNA
Sequence (P02768 25-609): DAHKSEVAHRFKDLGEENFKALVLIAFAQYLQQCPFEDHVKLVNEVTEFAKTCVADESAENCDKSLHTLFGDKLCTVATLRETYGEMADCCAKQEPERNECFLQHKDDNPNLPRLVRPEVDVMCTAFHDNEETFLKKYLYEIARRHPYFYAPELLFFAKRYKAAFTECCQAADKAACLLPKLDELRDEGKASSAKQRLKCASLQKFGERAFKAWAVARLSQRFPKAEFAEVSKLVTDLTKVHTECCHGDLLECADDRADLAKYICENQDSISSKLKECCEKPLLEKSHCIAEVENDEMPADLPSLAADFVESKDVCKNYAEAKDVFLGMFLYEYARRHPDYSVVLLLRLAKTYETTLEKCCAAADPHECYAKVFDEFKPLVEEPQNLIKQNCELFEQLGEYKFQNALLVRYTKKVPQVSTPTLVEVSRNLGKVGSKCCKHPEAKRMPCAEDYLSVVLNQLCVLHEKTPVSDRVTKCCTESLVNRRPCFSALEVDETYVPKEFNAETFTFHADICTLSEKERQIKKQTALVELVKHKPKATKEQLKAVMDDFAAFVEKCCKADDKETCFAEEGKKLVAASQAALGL
Listing: pKd of selected compounds
# pKd: negative log10 of molar concentration; output just the value

Cc1ccc(C(=O)NCC(=O)N[C@H](CCC(=O)N[C@@H](CCC(N)=O)C(=O)O)C(=O)N2CCc3nc(-c4ccccc4)ncc3C2)cc1 ... 4.96

We now examine a further compound.
Need pKd, item Cc1ccc(C(=O)NCC(=O)N[C@@H](CCC(=O)N[C@@H](CCC(N)=O)C(=O)O)C(=O)N2CCc3nc(-c4ccccc4)ncc3C2)cc1 5.30

Data origin: paper PMC7675038
